B1: Twister Ribozyme (parent)
chain: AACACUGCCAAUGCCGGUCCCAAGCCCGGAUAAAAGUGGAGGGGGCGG

Variants of: B1
Test: self-cleavage, relative activity (ratio to wild type); higher = more cleavage; co-transcriptional
Collected self-cleavage values appear next to each entry.
outcome_measure: self-cleavage

>  <mutation_list>
C15U A34C

>  <meas_value>
0.205

$$$$
>  <mutation_list>
U6A A34U

>  <meas_value>
1.04

$$$$
>  <mutation_list>
A2C U31A

>  <meas_value>
0.0563

$$$$
>  <mutation_list>
C20G G38C

>  <meas_value>
0.108

$$$$
>  <mutation_list>
A4G C8A

>  <meas_value>
0.524

$$$$
>  <mutation_list>
A11U G13U

>  <meas_value>
0.694

$$$$
>  <mutation_list>
U6C A11G

>  <meas_value>
0.535

$$$$
>  <mutation_list>
C27A G36A

>  <meas_value>
0.121

$$$$
>  <mutation_list>
A2G C5A

>  <meas_value>
0.0588

$$$$
>  <mutation_list>
C15G G42A

>  <meas_value>
0.0628

$$$$
>  <mutation_list>
C20A A23G

>  <meas_value>
0.0659

$$$$
>  <mutation_list>
U18A C19G

>  <meas_value>
0.0926

$$$$
>  <mutation_list>
A1U C19A

>  <meas_value>
0.0579

$$$$
>  <mutation_list>
A2U A30C

>  <meas_value>
0.182

$$$$
>  <mutation_list>
G45A C46A

>  <meas_value>
0.714

$$$$
>  <mutation_list>
A32U G44C

>  <meas_value>
0.934

$$$$
>  <mutation_list>
C3A A34C

>  <meas_value>
0.0676

$$$$
>  <mutation_list>
A4U C27G

>  <meas_value>
0.115

$$$$
>  <mutation_list>
G36C G41C

>  <meas_value>
0.141

$$$$
>  <mutation_list>
A30G G43A

>  <meas_value>
0.22

$$$$
>  <mutation_list>
U18G U37G

>  <meas_value>
0.0758

$$$$
>  <mutation_list>
G7U A35C

>  <meas_value>
0.0996

$$$$
>  <mutation_list>
C5A C15G

>  <meas_value>
0.0768

$$$$
>  <mutation_list>
A2U G16U

>  <meas_value>
0.309

$$$$
>  <mutation_list>
G29A G45A

>  <meas_value>
0.724

$$$$
